Molecular target: Cystine/glutamate transporter (Homo sapiens)
Sequence (Q9UPY5 whole entry): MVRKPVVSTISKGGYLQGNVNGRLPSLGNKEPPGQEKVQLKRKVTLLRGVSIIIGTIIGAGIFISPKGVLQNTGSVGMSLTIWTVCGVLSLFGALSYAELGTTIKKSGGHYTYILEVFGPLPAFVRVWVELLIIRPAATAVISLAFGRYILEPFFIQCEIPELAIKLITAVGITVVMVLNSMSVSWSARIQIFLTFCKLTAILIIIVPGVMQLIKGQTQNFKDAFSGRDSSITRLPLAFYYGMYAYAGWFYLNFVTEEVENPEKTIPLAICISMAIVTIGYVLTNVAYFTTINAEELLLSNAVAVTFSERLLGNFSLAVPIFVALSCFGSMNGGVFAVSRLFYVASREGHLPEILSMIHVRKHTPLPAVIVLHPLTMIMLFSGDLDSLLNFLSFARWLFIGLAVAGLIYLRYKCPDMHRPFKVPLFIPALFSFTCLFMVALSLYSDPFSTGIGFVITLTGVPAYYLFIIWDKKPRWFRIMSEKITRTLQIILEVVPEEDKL
So I've got a bunch of compounds here, and I need their IC50 values.
Answers are plain numbers, in µM.

>>> observedresult("O=C(O)c1cc(/N=N/c2ccc(S(=O)(=O)Nc3ccccn3)cc2)ccc1O [SULFASALAZINE]")
10.4
>>> observedresult("Nc1c(/N=N/c2ccc(Oc3ccccc3)cc2)cc(S(=O)(=O)O)c2ccccc12")
14
>>> observedresult("Nc1c(/N=N/c2ccc(I)cc2)cc(S(=O)(=O)O)c2ccccc12")
14
>>> observedresult("Nc1ccc(/N=N/c2ccc(-c3ccc(/N=N/c4ccc(N)c5ccc(S(=O)(=O)O)cc45)cc3)cc2)c2cc(S(=O)(=O)O)ccc12")
4.3
>>> observedresult("Nc1c(/N=N/c2ccc(SSc3ccc(/N=N/c4cc(S(=O)(=O)O)c5ccccc5c4N)cc3)cc2)cc(S(=O)(=O)O)c2ccccc12")
4.3

Attention now turns to another entry.
// IC50 lookup, key: Nc1c(/N=N/c2ccc(Br)cc2)cc(S(=O)(=O)O)c2ccccc12
25

Value source: ChEMBL document CHEMBL5393442
